- Tested on: Nucleic Acid
- Test Protocol: Binding affinity to HSP90A quadruplex DNA assessed as change in melting temperature at 2 uM by FRET melting assay
- Type: nucleic-acid assay
- Experimental Setup: Homo sapiens
Recorded ΔTm values for a group of compounds are listed next.

A selection of reference data follows.
INSERT INTO assay_data (item_smiles, parameter_measured, recorded_measurement) VALUES
  ('c1cc(-c2cnc(-c3ccc(OCCN4CCCC4)cc3)o2)cc(-c2cnc(-c3ccc(OCCN4CCCC4)cc3)o2)c1', 'ΔTm', '14 °C'),
  ('c1cc(-c2cnc(-c3cccc(CN4CCCCC4)c3)o2)cc(-c2cnc(-c3cccc(CN4CCCCC4)c3)o2)c1', 'ΔTm', '8 °C');

Any idea what ΔTm was measured for `CN1CCN(CCc2ccc(-c3ncc(-c4ccc(-c5cnc(-c6ccc(CCN7CCN(C)CC7)cc6)o5)cc4)o3)cc2)CC1` ?
< 5 °C

###

Recorded ΔTm values for a group of compounds are listed next.
- System: Nucleic Acid
- Test Protocol: Binding affinity to HSP90B quadruplex DNA assessed as change in melting temperature at 1 uM by FRET melting assay
- Format: nucleic-acid assay
- Experimental Setup: Homo sapiens
// return numeric value only (unit: °C, not printed)

A selection of reference data follows.
INSERT INTO measurements (item_smiles, parameter_measured, recorded_measurement) VALUES
  ('c1cc(-c2cnc(-c3ccc(OCCCCN4CCCC4)cc3)o2)cc(-c2cnc(-c3ccc(OCCCCN4CCCC4)cc3)o2)c1', 'ΔTm', 2),
  ('c1cc(-c2cnc(-c3ccc(CN4CCCC4)cc3)o2)cc(-c2cnc(-c3ccc(CN4CCCC4)cc3)o2)c1', 'ΔTm', 2);

Consider the additional compound presented here.
Any idea what ΔTm was measured for `c1cc(-c2cnc(-c3ccc(OCCCN4CCCC4)cc3)o2)cc(-c2cnc(-c3ccc(OCCCN4CCCC4)cc3)o2)c1` ?
2

###

- System: Nucleic Acid
- Test Protocol: Binding affinity to HSP90B quadruplex DNA assessed as change in melting temperature at 2 uM by FRET melting assay
- Format: nucleic-acid assay
- Experimental Setup: Homo sapiens
Recorded ΔTm values for a group of compounds are listed next.
// return numeric value only (unit: °C, not printed)

INSERT INTO assay_data (item_smiles, parameter_measured, recorded_measurement) VALUES
  ('c1cc(-c2cnc(-c3ccc(OCCN4CCCC4)cc3)o2)cc(-c2cnc(-c3ccc(OCCN4CCCC4)cc3)o2)c1', 'ΔTm', 6);

Any idea what ΔTm was measured for `CC(C)N(Cc1ccc(-c2ncc(-c3cccc(-c4cnc(-c5ccc(CN(C(C)C)C(C)C)cc5)o4)c3)o2)cc1)C(C)C` ?
9

###

- System: Nucleic Acid
- Test Protocol: Binding affinity to double stranded DNA assessed as change in melting temperature at 2 uM by FRET melting assay
- Format: nucleic-acid assay
Recorded ΔTm values for a group of molecules are listed next.
// return numeric value only (unit: °C, not printed)

INSERT INTO measurements (item_smiles, recorded_measurement) VALUES
  ('CN1CCN(Cc2ccc(-c3ncc(-c4cccc(-c5cnc(-c6ccc(CN7CCN(C)CC7)cc6)o5)c4)o3)cc2)CC1', 0),
  ('CN1CCN(CCc2ccc(-c3ncc(-c4cccc(-c5cnc(-c6ccc(CCN7CCN(C)CC7)cc6)o5)c4)o3)cc2)CC1', 0),
  ('c1cc(-c2cnc(-c3ccc(CN4CCCC4)cc3)o2)cc(-c2cnc(-c3ccc(CN4CCCC4)cc3)o2)c1', 0);

Any idea what ΔTm was measured for `c1cc(-c2cnc(-c3ccc(CN4CCCCCC4)cc3)o2)cc(-c2cnc(-c3ccc(CN4CCCCCC4)cc3)o2)c1` ?
1

Any idea what ΔTm was measured for `CC(C)N(Cc1ccc(-c2ncc(-c3cccc(-c4cnc(-c5ccc(CN(C(C)C)C(C)C)cc5)o4)c3)o2)cc1)C(C)C` ?
1

Any idea what ΔTm was measured for `c1cc(-c2cnc(-c3cccc(CN4CCCCC4)c3)o2)cc(-c2cnc(-c3cccc(CN4CCCCC4)c3)o2)c1` ?
1

Any idea what ΔTm was measured for `c1cc(-c2cnc(-c3ccc(OCCCCN4CCCC4)cc3)o2)cc(-c2cnc(-c3ccc(OCCCCN4CCCC4)cc3)o2)c1` ?
0

Any idea what ΔTm was measured for `c1cc(-c2cnc(-c3ccc(OCCN4CCCC4)cc3)o2)cc(-c2cnc(-c3ccc(OCCN4CCCC4)cc3)o2)c1` ?
0

Any idea what ΔTm was measured for `c1cc(-c2cnc(-c3ccc(CN4CCOCC4)cc3)o2)cc(-c2cnc(-c3ccc(CN4CCOCC4)cc3)o2)c1` ?
0

Any idea what ΔTm was measured for `c1cc(-c2cnc(-c3ccc(OCCCN4CCCC4)cc3)o2)cc(-c2cnc(-c3ccc(OCCCN4CCCC4)cc3)o2)c1` ?
0

###

- Test system: Nucleic Acid
- Test Protocol: Binding affinity to human G4 telomeric quadruplex DNA assessed as change in melting temperature at 1 uM by FRET melting assay
- Assay type: nucleic-acid assay
Recorded ΔTm values for a group of compounds are listed next.

A selection of reference data follows.
INSERT INTO assay_data (item_smiles, recorded_measurement) VALUES
  ('CN1CCN(CCc2ccc(-c3ncc(-c4cccc(-c5cnc(-c6ccc(CCN7CCN(C)CC7)cc6)o5)c4)o3)cc2)CC1', '< 2 °C'),
  ('CC(C)N(Cc1ccc(-c2ncc(-c3cccc(-c4cnc(-c5ccc(CN(C(C)C)C(C)C)cc5)o4)c3)o2)cc1)C(C)C', '< 2 °C'),
  ('c1cc(-c2cnc(-c3ccc(OCCN4CCCC4)cc3)o2)cc(-c2cnc(-c3ccc(OCCN4CCCC4)cc3)o2)c1', '< 2 °C'),
  ('c1cc(-c2cnc(-c3ccc(CN4CCCC4)cc3)o2)cc(-c2cnc(-c3ccc(CN4CCCC4)cc3)o2)c1', '2 °C');

Any idea what ΔTm was measured for `CN1CCN(Cc2ccc(-c3ncc(-c4cccc(-c5cnc(-c6ccc(CN7CCN(C)CC7)cc6)o5)c4)o3)cc2)CC1` ?
< 2 °C

Any idea what ΔTm was measured for `c1cc(-c2cnc(-c3cccc(CN4CCCCC4)c3)o2)cc(-c2cnc(-c3cccc(CN4CCCCC4)c3)o2)c1` ?
< 2 °C

Any idea what ΔTm was measured for `c1cc(-c2cnc(-c3ccc(OCCCCN4CCCC4)cc3)o2)cc(-c2cnc(-c3ccc(OCCCCN4CCCC4)cc3)o2)c1` ?
2 °C

###

Recorded ΔTm values for a group of compounds are listed next.
- Test system: Nucleic Acid
- Test Protocol: Binding affinity to HSP90A quadruplex DNA assessed as change in melting temperature at 1 uM by FRET melting assay
- Format: nucleic-acid assay
- Experimental Setup: Homo sapiens
Put your answer as a value accompanied by its unit after it.

A selection of reference data follows.
INSERT INTO results (item_smiles, recorded_measurement) VALUES
  ('c1cc(-c2cnc(-c3ccc(CN4CCCC4)cc3)o2)cc(-c2cnc(-c3ccc(CN4CCCC4)cc3)o2)c1', '7 °C'),
  ('CC(C)N(Cc1ccc(-c2ncc(-c3cccc(-c4cnc(-c5ccc(CN(C(C)C)C(C)C)cc5)o4)c3)o2)cc1)C(C)C', '8 °C'),
  ('CN1CCN(CCc2ccc(-c3ncc(-c4cccc(-c5cnc(-c6ccc(CCN7CCN(C)CC7)cc6)o5)c4)o3)cc2)CC1', '14 °C'),
  ('CN1CCN(Cc2ccc(-c3ncc(-c4cccc(-c5cnc(-c6ccc(CN7CCN(C)CC7)cc6)o5)c4)o3)cc2)CC1', '7 °C'),
  ('c1cc(-c2cnc(-c3ccc(OCCCN4CCCC4)cc3)o2)cc(-c2cnc(-c3ccc(OCCCN4CCCC4)cc3)o2)c1', '7 °C');

Any idea what ΔTm was measured for `c1cc(-c2cnc(-c3ccc(OCCN4CCCC4)cc3)o2)cc(-c2cnc(-c3ccc(OCCN4CCCC4)cc3)o2)c1` ?
7 °C

Any idea what ΔTm was measured for `c1cc(-c2cnc(-c3ccc(OCCCCN4CCCC4)cc3)o2)cc(-c2cnc(-c3ccc(OCCCCN4CCCC4)cc3)o2)c1` ?
5 °C

Any idea what ΔTm was measured for `c1cc(-c2cnc(-c3ccc(CN4CCCCCC4)cc3)o2)cc(-c2cnc(-c3ccc(CN4CCCCCC4)cc3)o2)c1` ?
8 °C

Any idea what ΔTm was measured for `c1cc(-c2cnc(-c3ccc(CN4CCOCC4)cc3)o2)cc(-c2cnc(-c3ccc(CN4CCOCC4)cc3)o2)c1` ?
6 °C

Any idea what ΔTm was measured for `c1cc(-c2cnc(-c3cccc(CN4CCCCC4)c3)o2)cc(-c2cnc(-c3cccc(CN4CCCCC4)c3)o2)c1` ?
5 °C

###

- System: Nucleic Acid
- Test Protocol: Binding affinity to double stranded DNA assessed as change in melting temperature at 1 uM by FRET melting assay
- Assay type: nucleic-acid assay
Parameter Measured: ΔTm (°C)
// return numeric value only (unit: °C, not printed)

INSERT INTO measurements (item_smiles, recorded_measurement) VALUES
  ('c1cc(-c2cnc(-c3cccc(CN4CCCCC4)c3)o2)cc(-c2cnc(-c3cccc(CN4CCCCC4)c3)o2)c1', 1),
  ('c1cc(-c2cnc(-c3ccc(OCCCCN4CCCC4)cc3)o2)cc(-c2cnc(-c3ccc(OCCCCN4CCCC4)cc3)o2)c1', 0),
  ('c1cc(-c2cnc(-c3ccc(CN4CCCCCC4)cc3)o2)cc(-c2cnc(-c3ccc(CN4CCCCCC4)cc3)o2)c1', 1),
  ('c1cc(-c2cnc(-c3ccc(CN4CCCC4)cc3)o2)cc(-c2cnc(-c3ccc(CN4CCCC4)cc3)o2)c1', 0),
  ('c1cc(-c2cnc(-c3ccc(CN4CCOCC4)cc3)o2)cc(-c2cnc(-c3ccc(CN4CCOCC4)cc3)o2)c1', 0),
  ('CN1CCN(CCc2ccc(-c3ncc(-c4cccc(-c5cnc(-c6ccc(CCN7CCN(C)CC7)cc6)o5)c4)o3)cc2)CC1', 0),
  ('CN1CCN(Cc2ccc(-c3ncc(-c4cccc(-c5cnc(-c6ccc(CN7CCN(C)CC7)cc6)o5)c4)o3)cc2)CC1', 0),
  ('CC(C)N(Cc1ccc(-c2ncc(-c3cccc(-c4cnc(-c5ccc(CN(C(C)C)C(C)C)cc5)o4)c3)o2)cc1)C(C)C', 1),
  ('c1cc(-c2cnc(-c3ccc(OCCN4CCCC4)cc3)o2)cc(-c2cnc(-c3ccc(OCCN4CCCC4)cc3)o2)c1', 0);

Consider the additional compound presented here.
Can you look up ΔTm on Nucleic Acid for `c1cc(-c2cnc(-c3ccc(OCCCN4CCCC4)cc3)o2)cc(-c2cnc(-c3ccc(OCCCN4CCCC4)cc3)o2)c1` ?
0
